Tested on: Escherichia coli TOP10
Assay: shrunken log2 fold change of peptide-encoding DNA abundance (4.5 h post-induction vs induction); higher = less antimicrobial activity (less host growth inhibition)
Conditions: time post-induction: 4.5 h; library: site-saturation at positions 5, 18, 19, 20
Listed here are sequences together with their documented shrunken log2 fold change.
Endpoint Name: shrunken log2 fold change

- RRIRKRPPRLPRPRPRPETMPRP: 0.0612
- RRIRWRPPRLPRPRPRPIPQPRP: 0.254
- RRIRRRPPRLPRPRPRPLEEPRP: 0.597
- RRIRMRPPRLPRPRPRPSLLPRP: 0.0721
- RRIRSRPPRLPRPRPRPNYPPRP: -0.195
- RRIRGRPPRLPRPRPRPDIQPRP: 1.9
- RRIRYRPPRLPRPRPRPIQSPRP: -0.00206
- RRIRFRPPRLPRPRPRPMKMPRP: -0.0224
- RRIRCRPPRLPRPRPRPFESPRP: 0.0262
- RRIRWRPPRLPRPRPRPTHDPRP: 0.196
- RRIRTRPPRLPRPRPRPKSKPRP: 0.0217
- RRIRLRPPRLPRPRPRPCGEPRP: 0.122
- RRIRMRPPRLPRPRPRPHAVPRP: 0.353
- RRIRQRPPRLPRPRPRPEPPPRP: 0.488
- RRIRMRPPRLPRPRPRPFQAPRP: 0.242

----------
Test system: Escherichia coli TOP10
Experiment: shrunken log2 fold change of peptide-encoding DNA abundance (4.5 h post-induction vs induction); higher = less antimicrobial activity (less host growth inhibition)
Conditions: time post-induction: 4.5 h; library: site-saturation at positions 5, 18, 19, 20
The class of a record is decided solely by its measured shrunken log2 fold change; consult b0 (below -0.09), b1 (-0.09 to below 0.02), b2 (0.02 or more)

- RRIRARPPRLPRPRPRPAYRPRP: b1
- RRIRGRPPRLPRPRPRPRRIPRP: b2
- RRIRIRPPRLPRPRPRPNFFPRP: b1
- RRIRDRPPRLPRPRPRPSERPRP: b1
- RRIRFRPPRLPRPRPRPNTRPRP: b0
- RRIRERPPRLPRPRPRPVEHPRP: b1
- RRIRYRPPRLPRPRPRPFTAPRP: b0
- RRIRPRPPRLPRPRPRPQREPRP: b1
- RRIRERPPRLPRPRPRPEFWPRP: b2

----------
System: Escherichia coli TOP10;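 also: peptides expressed intracellularly from a pBAD plasmid library in pooled LB shake-flask culture, induced with 0.3% L-arabinose, DNA abundance read by NGS, three biological replicates, DESeq2 with apeglm shrinkage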
Experiment: shrunken log2 fold change of peptide-encoding DNA abundance (4.5 h post-induction vs induction); higher = less antimicrobial activity (less host growth inhibition)
Conditions: time post-induction: 4.5 h; library: site-saturation at positions 5, 18, 19, 20
Label rule, in plain words: shrunken log2 fold change of 0.07 and up is Met, under 0.07 is Not met.

• RRIRRRPPRLPRPRPRPGLIPRP = Met
• RRIRVRPPRLPRPRPRPLKFPRP = Not met
• RRIRFRPPRLPRPRPRPMCRPRP = Not met
• RRIRPRPPRLPRPRPRPMQCPRP = Not met
• RRIRARPPRLPRPRPRPFWNPRP = Met
• RRIRMRPPRLPRPRPRPLGHPRP = Met
• RRIRDRPPRLPRPRPRPSILPRP = Met
• RRIRLRPPRLPRPRPRPYPTPRP = Not met
• RRIRQRPPRLPRPRPRPSLNPRP = Not met
• RRIRVRPPRLPRPRPRPVKMPRP = Not met
• RRIRKRPPRLPRPRPRPRNPPRP = Met
• RRIRYRPPRLPRPRPRPTFYPRP = Not met
• RRIRYRPPRLPRPRPRPTPWPRP = Not met
• RRIRGRPPRLPRPRPRPVWSPRP = Met
• RRIRQRPPRLPRPRPRPLMNPRP = Not met
• RRIRKRPPRLPRPRPRPITDPRP = Not met
• RRIRKRPPRLPRPRPRPYRHPRP = Not met
